system.under.test: CyclinA2/CDK2 (Homo sapiens, UniProt P20248)
Construct: purchased CRELUX Protein Services
test.method.notes: Fluorescence Polarization (FP) competitive binding assay, Cyclin A2/Cdk2;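 also: plates equilibrated two hours at room temperature before polarization reading, IC50 fitted from eight-concentration compound titration curves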
recorded.conditions: 8 nM Cyclin A2/Cdk2, 2 nM FAM probe; average of 2-3 independent experiments; read-out: Cyclin A FP IC50
*1 amine or outer side, *2 acyl side, *3 side chain or, on linkers, in order; H or OH if unused. Where a SMILES comes first, the peptide text is derived from it. Bridges are numbered along the chain shown (N, C = ends). [ ]: non-standard residue; d: D form. The star is where a group is joined. X126 = CC(C)C(=O)N1[C@H]2COC[C@@H]1C=C(c1ccc(F)cc1C[C@@H](C(=O)[*:2])N(C)[*:1])C2; X127 = CN([C@@H](Cc1cc(F)ccc1-c1cnn(S(=O)(=O)C2CC2)c1)C(=O)[*:2])[*:1]; X13 = CN([C@@H](Cc1cc(Cl)ccc1-c1cnn(CCS(C)(=O)=O)c1)C(=O)[*:2])[*:1]; X136 = CN1CCOc2cc(-c3ccc(Cl)cc3C[C@@H](C(=O)[*:2])N(C)[*:1])ccc21; NMehhhLys(Me) = CN([C@@H](CCCCCCCN(C)[*:3])C(=O)[*:2])[*:1]; NMe(hhhLys) = CN([C@@H](CCCCCCCN[*:3])C(=O)[*:2])[*:1]; cBuCO(3,3-F2-1-CF3) = O=C(C1(C(F)(F)F)CC(F)(F)C1)*; X161 = Cc1ccc(F)cc1C[C@@H](C(=O)[*:2])N(C)[*:1]; Pro(trans-4-F) = O=C(O)[C@@H]1C[C@@H](F)CN1; Gly(cPr) = N[C@H](C(=O)O)C1CC1
quantity.kind: IC50 (nM)
Entry rule: numbers only, all in nM.

(Q) Return IC50 measured with CyclinA2/CDK2 (Homo sapiens, UniProt P20248) given this molecule: Cc1ccc(F)cc1C[C@H]1C(=O)N(C)CCCCCCC[C@H](N(C)C(=O)[C@@H](NC(=O)[C@@H]2C[C@@H](F)CN2C(=O)C2(C(F)(F)F)CC(F)(F)C2)C2CC2)C(=O)N[C@@H](CC(C)C)C(=O)N1C [Example 123] ({cBuCO(3,3-F2-1-CF3)}-[Pro(trans-4-F)][Gly(cPr)][NMehhhLys(Me)]L[X161]; lactam 3-C)
(A) 30

(Q) Return IC50 measured with CyclinA2/CDK2 (Homo sapiens, UniProt P20248) given this molecule: CC(C)C[C@@H]1NC(=O)[C@@H](N(C)C(=O)[C@@H](NC(=O)[C@@H]2C[C@@H](F)CN2C(=O)C2(C(F)(F)F)CC(F)(F)C2)C2CC2)CCCCCCCN(C)C(=O)[C@H](Cc2cc(Cl)ccc2-c2cnn(CCS(C)(=O)=O)c2)N(C)C1=O [Example 257] ({cBuCO(3,3-F2-1-CF3)}-[Pro(trans-4-F)][Gly(cPr)][NMehhhLys(Me)]L[X13]; lactam 3-C)
(A) 20

(Q) Return IC50 measured with CyclinA2/CDK2 (Homo sapiens, UniProt P20248) given this molecule: COCCn1cc(-c2ccc(Cl)cc2C[C@H]2C(=O)NCCCCC=CC[C@H](N(C)C(=O)[C@@H](NC(=O)[C@@H]3C[C@@H](F)CN3C(=O)C3(C(F)(F)F)CC(F)(F)C3)C3CC3)C(=O)N[C@@H](CC(C)C)C(=O)N2C)cn1
(A) 40

(Q) Return IC50 measured with CyclinA2/CDK2 (Homo sapiens, UniProt P20248) given this molecule: CC(C)C[C@@H]1NC(=O)[C@@H](N(C)C(=O)[C@@H](NC(=O)[C@@H]2C[C@@H](F)CN2C(=O)C2(C(F)(F)F)CC(F)(F)C2)C2CC2)CCCCCCCN(C)C(=O)[C@H](Cc2cc(F)ccc2C2=C[C@H]3COC[C@@H](C2)N3C(=O)C(C)C)N(C)C1=O [Example 328] ({cBuCO(3,3-F2-1-CF3)}-[Pro(trans-4-F)][Gly(cPr)][NMehhhLys(Me)]L[X126]; lactam 3-C)
(A) 20

(Q) Return IC50 measured with CyclinA2/CDK2 (Homo sapiens, UniProt P20248) given this molecule: CC(C)C[C@@H]1NC(=O)[C@@H](N(C)C(=O)[C@@H](NC(=O)[C@@H]2C[C@@H](F)CN2C(=O)C2(C(F)(F)F)CC(F)(F)C2)C2CC2)CCCCCCCN(C)C(=O)[C@H](Cc2cc(Cl)ccc2-c2ccc3c(c2)OCCN3C)N(C)C1=O [Example 342] ({cBuCO(3,3-F2-1-CF3)}-[Pro(trans-4-F)][Gly(cPr)][NMehhhLys(Me)]L[X136]; lactam 3-C)
(A) 20

(Q) Return IC50 measured with CyclinA2/CDK2 (Homo sapiens, UniProt P20248) given this molecule: CC(C)C[C@@H]1NC(=O)[C@@H](N(C)C(=O)[C@@H](NC(=O)[C@@H]2C[C@@H](F)CN2C(=O)C2(C(F)(F)F)CC(F)(F)C2)C2CC2)CCCCCCCNC(=O)[C@H](Cc2cc(F)ccc2-c2cnn(S(=O)(=O)C3CC3)c2)N(C)C1=O [Example 281] ({cBuCO(3,3-F2-1-CF3)}-[Pro(trans-4-F)][Gly(cPr)][NMe(hhhLys)]L[X127]; lactam 3-C)
(A) 40
